Just for reference, patent US20150051203A1 is where these values come from.

Consider the following compounds and their measured half-life readings.
procedure_text: Exploratory small molecule PK study in rats
Format: in vivo, male Sprague-Dawley rats
setup_conditions: male, Sprague-Dawley, plasma; rat, PO 25 mg/Kg, D5W; read-out: T½ (converted)
Give just the number in h; leave the unit off.

{"smiles_record": "CCNC(=O)c1nnc(-c2cc3c(C(C)C)n[nH]c3cc2O)n1-c1ccc(CN2CCOCC2)cc1", "unit_annotation": "h", "value_observed": 4.3}
{"smiles_record": "Oc1cc2[nH]nc(C3CCCC3)c2cc1-c1nnc(O)n1-c1ccc(CN2CCOCC2)cc1", "unit_annotation": "h", "value_observed": 4.2}
{"smiles_record": "CC(C)c1n[nH]c2cc(O)c(-c3nnc(O)n3-c3ccc(N4CCN(C)CC4)cc3)cc12", "unit_annotation": "h", "value_observed": 2.1}

Continue with the compound presented below.
Lab book: half-life of CC(C)c1n[nH]c2cc(O)c(-c3nnc(C(=O)NCC(F)(F)F)n3-c3ccc(N4CCOCC4)cc3)cc12 noted as 10.7

====

procedure_text: Exploratory small molecule PK study in rats
Type: in vivo, male Sprague-Dawley rats
Design: unit not given here
setup_conditions: rat, IV 5 mg/Kg, DPD
Consider the following compounds and their measured AUClast readings.

{"compound": "CC(C)c1n[nH]c2cc(O)c(-c3nnc(C(=O)NCC(F)(F)F)n3-c3ccc(N4CCOCC4)cc3)cc12 [Compound 38]", "AUClast": 2.6}

Lab book: AUClast of Oc1cc2[nH]nc(C3CCCC3)c2cc1-c1nnc(O)n1-c1ccc(CN2CCOCC2)cc1 [Compound 78] noted as 3.96

Lab book: AUClast of CCNC(=O)c1nnc(-c2cc3c(C(C)C)n[nH]c3cc2O)n1-c1ccc(CN2CCOCC2)cc1 [Compound 55] noted as 2.52

Lab book: AUClast of CC(C)c1n[nH]c2cc(O)c(-c3nnc(O)n3-c3ccc(N4CCN(C)CC4)cc3)cc12 [Compound 72] noted as 1.69
